- Conditions used: in DMAc, 309.65 K
Measured property: solubility (mole fraction)

Cc1ccccc1C(=O)O 0.0831

---

- Conditions used: in DMSO, 310.85 K
Measured property: solubility (mole fraction)

Cc1ccccc1C(=O)O 0.542

---

- Conditions used: in propionic acid, 322.45 K
Measured property: solubility (mole fraction)

Cc1ccccc1C(=O)O 0.301

---

- Conditions used: in DMF, 332.45 K
Measured property: solubility (mole fraction)

O=C(O)c1ccccc1C(=O)O 0.499

---

- Conditions used: in DMF, 338.25 K
Measured property: solubility (mole fraction)

O=C(O)c1ccccc1C(=O)O 0.516

---

- Conditions used: in DMSO, 299.65 K
Measured property: solubility (mole fraction)

Cc1ccccc1C(=O)O 0.514

---

- Conditions used: in DMSO, 328.15 K
Measured property: solubility (mole fraction)

O=C(O)c1ccccc1C(=O)O 0.368

---

- Conditions used: in DMAc, 342.05 K
Measured property: solubility (mole fraction)

Cc1ccccc1C(=O)O 0.344

---

- Conditions used: in NMP, 298.35 K
Measured property: solubility (mole fraction)

O=C(O)c1ccccc1C(=O)O 0.0801

---

- Conditions used: in DMSO, 342.15 K
Measured property: solubility (mole fraction)

O=C(O)c1ccccc1C(=O)O 0.38

---

- Conditions used: in DMAc, 318.15 K
Measured property: solubility (mole fraction)

O=C(O)c1ccccc1C(=O)O 0.305

---

- Conditions used: in NMP, 303.25 K
Measured property: solubility (mole fraction)

O=C(O)c1ccccc1C(=O)O 0.0925

---

- Conditions used: in DMSO, 319.65 K
Measured property: solubility (mole fraction)

Cc1ccccc1C(=O)O 0.57

---

- Conditions used: in propionic acid, 298.75 K
Measured property: solubility (mole fraction)

O=C(O)c1ccccc1C(=O)O 0.00308

---

- Conditions used: in DMSO, 321.65 K
Measured property: solubility (mole fraction)

O=C(O)c1ccccc1C(=O)O 0.362

---

- Conditions used: in NMP, 312.65 K
Measured property: solubility (mole fraction)

Cc1ccccc1C(=O)O 0.518

---

- Conditions used: in n-methylformamide, 326.15 K
Measured property: solubility (mole fraction)

Cc1ccccc1C(=O)O 0.392

---

- Conditions used: in DMAc, 333.15 K
Measured property: solubility (mole fraction)

O=C(O)c1ccccc1C(=O)O 0.405

---

- Conditions used: in DMSO, 335.15 K
Measured property: solubility (mole fraction)

O=C(O)c1ccccc1C(=O)O 0.373

---

- Conditions used: in DMAc, 311.25 K
Measured property: solubility (mole fraction)

Cc1ccccc1C(=O)O 0.0866

---

- Conditions used: in DMSO, 313.15 K
Measured property: solubility (mole fraction)

Cc1ccccc1C(=O)O 0.548

---

- Conditions used: in DMSO, 294.05 K
Measured property: solubility (mole fraction)

Cc1ccccc1C(=O)O 0.497

---

- Conditions used: in NMP, 325.15 K
Measured property: solubility (mole fraction)

O=C(O)c1ccccc1C(=O)O 0.173

---

- Conditions used: in DMAc, 302.95 K
Measured property: solubility (mole fraction)

O=C(O)c1ccccc1C(=O)O 0.201

---

- Conditions used: in acetonitrile, 329.15 K
Measured property: solubility (mole fraction)

O=C(O)c1ccccc1C(=O)O 0.0457
Cc1ccccc1C(=O)O 0.386
